Details: buffer; pH 7.4; 200.0 µM
value.type: solubility kinetic (µg/mL)
# number only, unit µg/mL dropped from output

Using the record for S=C(Nc1ccccc1)Nc1ccc(Cl)cn1 , report its solubility kinetic. 2.1

And for N#CC(C(=O)c1ccccc1)=C1SCCS1 ? 1.8

And for Cc1nc2ccccc2n1CCOc1ccc(F)cc1 ? 40.1

And for Cn1c(N)nc2nc(CCc3ccccc3)c(=O)[nH]c2c1=O ? 9.9

And for Fc1ccccc1-c1nc(-c2ccncc2)no1 ? 6

And for Cc1ccc(NC(=O)CN2CCc3ccccc3C2)cc1F ? 23.1

And for CC(NC=O)c1nc2ccccc2n1CCc1ccccc1 (stereo unspecified) ? 43.9

And for CC(C)c1ccc(NC(=O)C2CC(=O)N(C3CCCC3)C2)cc1 (stereo unspecified) ? 36.1

And for O=C1CC(c2ccccc2F)c2c(c3ccccc3[nH]c2=O)O1 (stereo unspecified) ? 11.4

And for O=C(Nc1cc(Cl)ccc1Cl)C1CCCO1 (stereo unspecified) ? 28.9

And for O=C(CSc1ccccc1F)Nc1ccc2c(c1)OCO2 ? 45.4

And for CCOC(=O)C1CCN(C(=O)c2ccc(OC3CCN(C(=O)COC)CC3)cc2)CC1 ? 45

And for O=C(NCC(=O)N1CCN(Cc2ccc3c(c2)OCO3)CC1)c1ccccc1F ? 1.4

And for O=S(=O)(c1ccc(-c2ccon2)s1)N1CCCC1 ? 11.5

And for COc1ccc(C2C(C#N)=C(N)Oc3cccc(O)c32)cc1 (stereo unspecified) ? 9.6

And for Cc1ccc(NC(=O)C(c2ccccc2)N(C)C)cc1Cl (stereo unspecified) ? 28.3

---

Conditions: buffer; pH 7.4; 200.0 µM
Task for the reader: assign each of the following molecules its reported solubility kinetic.
# number only, unit µg/mL dropped from output

Using the record for Cc1ccccc1OCCN(C#N)c1nc(N(C)C)nc(N(C)C)n1 , report its solubility kinetic. 0.4

And for CN(Cc1ccccc1)C(=O)c1ccc(S(=O)(=O)N(C)c2ccccc2)cc1 ? 26.1

And for O=C(Nc1ccccc1)N1CCCN(c2c(Cl)cncc2Cl)CC1 ? 10.9

And for Cc1ccc(NC(=O)Nc2ncnc3nc[nH]c23)cc1 ? 6.3

And for CSc1ccc(CN2CCSCC2)cc1 ? 17

And for Cc1cc(C(=O)NC2CCCc3ccccc32)ccc1[N+](=O)[O-] (configuration not stated) ? 10.3

---

Conditions: buffer; pH 7.4; 200.0 µM
value.type: solubility kinetic (µg/mL)
# number only, unit µg/mL dropped from output

Using the record for O=C(CNC(=O)C1CCCCC1)Nc1ccc(F)c(Cl)c1 , report its solubility kinetic. 8.2

And for O=C1CCCCCN1CP(=O)(O)CN1CCCCCC1=O ? 46.1

And for COc1ccc2[nH]c(=S)cc(C)c2c1 ? 8.9

And for O=C(Nc1ccc(C(F)(F)F)cc1)c1ccc2ncsc2c1 ? 4.6

And for Cc1cc(C)cc(C(=O)OCC(=O)NC(=O)NC2CCCC2)c1 ? 4.1

And for C#CCn1cc(/C=C2\NC(=O)NC2=O)c2ccccc21 ? 1.2

And for COc1ccc(C(=O)Nc2nc(-c3ccccn3)cs2)cc1S(=O)(=O)N1CCOCC1 ? 6.8

And for CC(=O)c1c(C)[nH]c(C(=O)OCc2ccc([N+](=O)[O-])cc2)c1C ? 2.1

And for COc1ccc(OCC(=O)OCC(=O)Nc2cc(S(=O)(=O)N3CCOCC3)ccc2Cl)cc1 ? 62.5

And for O=C(COC(=O)c1cc(Cl)cc(Cl)c1)NCc1ccco1 ? 28.4

And for O=[N+]([O-])c1cccc(-c2ncc3ccccn23)c1 ? 19.1

And for O=C(CSc1nccc(-c2cccs2)n1)Nc1ccc(F)c(Cl)c1 ? 1.4

And for COc1cccc(NC(=O)C2C(c3ccccc3)C2(Cl)Cl)c1 (centres undefined) ? 7

And for COc1ccc(CCNCCN2CCOCC2)cc1.Cl ? 24.9

And for COc1ccccc1OCc1nc(C#N)c(N2CCCC2)o1 ? 39.1
